Source: patent US20090061031A1

# Measurement Target: HIV-1 integrase (Human immunodeficiency virus type 1 group M subtype B, UniProt P12497, C1427S/F1332H)
# Assay Procedure: HIV-1 integrase disintegration assay
# Assay type: biochemical
# Recorded Conditions: read-out: EC50s of inhibition of disintegration product formation
Experimental Readout: EC50 (µM)
Form entry: value (µM) — number only.

OCCc1ccc(O)c(O)c1 [HT, hydroxytyrosol] :: 0.018

Please look at the following molecule next.
Form: molecule = C/C=C1/[C@H](O[C@@H]2O[C@H](CO)[C@@H](O)[C@H](O)[C@H]2O)OC=C(C(=O)OC)[C@H]1CC(=O)OCCc1ccc(O)c(O)c1 (single isomer, unassigned) ; EC50 = 0.028

====

# Lookup of reported pEC50 keyed by entry
# Measurement Target: HIV-1 gp41 fusion core 6HB (N36 + C34) (Human immunodeficiency virus type 1 group M subtype B)
# Sequence (P04578 546-581): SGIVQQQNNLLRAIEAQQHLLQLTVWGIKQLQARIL
# Assay Procedure: Fusion core 6HB formation by circular dichroism spectroscopy
Remember, pEC50 is on a log scale: it is -log10 of the molar concentration.

pEC50 for C/C=C1/[C@H](O[C@@H]2O[C@H](CO)[C@@H](O)[C@H](O)[C@H]2O)OC=C(C(=O)OC)[C@H]1CC(=O)OCCc1ccc(O)c(O)c1 (single isomer, unassigned) is 7.21

Input OCCc1ccc(O)c(O)c1 [HT, hydroxytyrosol] . Output pEC50: 7.22

====

# Tested on: HIV-1
# Assay Procedure: HIV-1 core protein p24 production
# Type: cell-based, HIV-1IIIB
# Recorded Conditions: Human immunodeficiency virus 1, 50% inhibition, read-out: Anti-HIV Activity EC50 P24
Reported EC50 values for the following compounds.

OCCc1ccc(O)c(O)c1 [HT, hydroxytyrosol] :: 68 nM

Now turn to the next compound.
Record for C/C=C1/[C@H](O[C@@H]2O[C@H](CO)[C@@H](O)[C@H](O)[C@H]2O)OC=C(C(=O)OC)[C@H]1CC(=O)OCCc1ccc(O)c(O)c1 (single isomer, unassigned) under target or system HIV-1: EC50 reported as 73 nM

====

# Measurement Target: HIV-1 integrase (Human immunodeficiency virus type 1 group M subtype B, UniProt P12497, C1427S/F1332H)
# Assay Procedure: HIV-1 integrase strand-transfer (integration) assay
# Format: biochemical
# Recorded Conditions: U3-GT into pUC18, read-out: Inhibitory Activity EC50 HIV-1 Integrase ST
Experimental Readout: EC50 (nM)
Kindly answer with a numeric value in nM, unit omitted.

C/C=C1/[C@H](O[C@@H]2O[C@H](CO)[C@@H](O)[C@H](O)[C@H]2O)OC=C(C(=O)OC)[C@H]1CC(=O)OCCc1ccc(O)c(O)c1 (single isomer, unassigned) :: 56

# ---- query compound ----
get_value(item= OCCc1ccc(O)c(O)c1 [HT, hydroxytyrosol] , readout=EC50) returns 43
